# assay.target: D-aminoacylase (Alcaligenes faecalis, UniProt Q9AGH8)
# Sequence (Q9AGH8 1-484): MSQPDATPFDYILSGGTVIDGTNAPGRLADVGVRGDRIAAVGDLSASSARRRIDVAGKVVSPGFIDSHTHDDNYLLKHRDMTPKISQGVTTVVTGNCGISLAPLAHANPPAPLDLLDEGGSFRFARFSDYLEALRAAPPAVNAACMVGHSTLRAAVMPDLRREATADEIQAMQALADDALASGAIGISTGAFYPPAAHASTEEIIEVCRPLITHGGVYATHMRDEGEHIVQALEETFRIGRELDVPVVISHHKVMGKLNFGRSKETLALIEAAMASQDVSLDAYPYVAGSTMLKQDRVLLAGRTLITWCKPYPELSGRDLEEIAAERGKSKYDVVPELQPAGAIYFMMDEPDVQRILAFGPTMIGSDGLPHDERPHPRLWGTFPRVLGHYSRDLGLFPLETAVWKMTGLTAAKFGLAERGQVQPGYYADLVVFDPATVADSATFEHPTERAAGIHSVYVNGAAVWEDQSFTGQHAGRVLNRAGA
# method: Substrate specificity of D-aminoacylase (hydrolysis of N-acyl amino acids, ninhydrin method)
# Type: biochemical
# particulars: D-form of the substrate; N-acetyl-D-methionine = 100
observable: Relative Activity D-form

// known answers, use as guide
>  <molecule>
CC(=O)NC(C(=O)O)c1ccccc1 (stereo not drawn)

>  <assay.target>
D-aminoacylase (Alcaligenes faecalis, UniProt Q9AGH8)

>  <Relative Activity D-form>
3

$$$$
>  <molecule>
CC(=O)N[C@@H](Cc1ccccc1)C(=O)O

>  <assay.target>
D-aminoacylase (Alcaligenes faecalis, UniProt Q9AGH8)

>  <Relative Activity D-form>
80

$$$$
>  <molecule>
CSCC[C@H](NC(C)=O)C(=O)O

>  <assay.target>
D-aminoacylase (Alcaligenes faecalis, UniProt Q9AGH8)

>  <Relative Activity D-form>
100

$$$$
>  <molecule>
CC(=O)N[C@@H](CC(N)=O)C(=O)O

>  <assay.target>
D-aminoacylase (Alcaligenes faecalis, UniProt Q9AGH8)

>  <Relative Activity D-form>
8

$$$$
>  <molecule>
CC(=O)N[C@H](C(=O)O)C(C)C

>  <assay.target>
D-aminoacylase (Alcaligenes faecalis, UniProt Q9AGH8)

>  <Relative Activity D-form>
6

$$$$

(I) CC(=O)N[C@@H](C)C(=O)O
(II) CC(=O)NC(CC(C)C)C(=O)O (stereo not drawn)
Of the two listed items, I and II , which carries the larger Relative Activity D-form figure? Please respond with the label that marks your chosen entry.
II

(a) CC(C)[C@H](NC(=O)CCl)C(=O)O
(b) CC(=O)N[C@@H](Cc1c[nH]c2ccccc12)C(=O)O
Of the two listed items, a and b , which carries the larger Relative Activity D-form figure? Please respond with the label that marks your chosen entry.
a
